Value source: patent US20210283212A1

- experimentalSystem: human C5 protein (human, UniProt P01031 19-673; P01031 678-1676)
- measurementNotes: cell-based or functional assay
Positions of bridges follow the written chain, without caps; N, C: chain ends. Non-standard residues stand in square brackets, D forms with d. Primed or numbered codes have the meaning given here. No end group written: not given here. mXylyl(3) = bridging moiety between the two residues given in brackets; mXylyl″ = bridging moiety between the two marked residues; Trp(7-aza) = N[C@@H](Cc1c[nH]c2ncccc12)C(=O)O; mXylyl(4) = bridging moiety between residues; dPhg = N[C@@H](C(=O)O)c1ccccc1; Phg = N[C@H](C(=O)O)c1ccccc1; Tle = CC(C)(C)[C@H](N)C(=O)O; NMeS = CN[C@@H](CO)C(=O)O; Nva = CCC[C@H](N)C(=O)O; Aib = CC(C)(N)C(=O)O
endpoint: Avg. IC50, human hemolysis assay

[ask] Please report the recorded Avg. IC50, human hemolysis assay for Ac-[Nva]C[Phg]T[Trp(7-aza)]NY[NMeS]AC[Nva]-NH2 (linker 2-10 via mXylyl(3)) [R3099] .
[reply] > 100 µM

[ask] Please report the recorded Avg. IC50, human hemolysis assay for Ac-CVEAFCD[Tle]Y[Trp(7-aza)]EYP[dPhg][Nva]-NH2 (linker 1-6 via mXylyl(3)) [R3154] .
[reply] 0.592 µM

[ask] Please report the recorded Avg. IC50, human hemolysis assay for Ac-[Nva]C[Phg][Aib][Trp(7-aza)]EY[NMeS]HC[Nva]-NH2 (linker 2-10 via mXylyl(3)) [R3096] .
[reply] > 50 µM

[ask] Please report the recorded Avg. IC50, human hemolysis assay for Ac-[Nva]CYNN[Tle]E[Trp(7-aza)]ECP[Phg][Tle]-NH2 (linker 2-10 via mXylyl(3)) [R3127] .
[reply] > 75 µM

[ask] Please report the recorded Avg. IC50, human hemolysis assay for MCVERFCDVYWE-NH2 (linker 2-7 via mXylyl(4)) [R3043] .
[reply] 0.934 µM

[ask] Please report the recorded Avg. IC50, human hemolysis assay for Ac-CAERFCD[Tle]YWEYP[dPhg][Nva]-NH2 (linker 1-6 via mXylyl(3)) [R3149] .
[reply] 0.0136 µM

[ask] Please report the recorded Avg. IC50, human hemolysis assay for Ac-CVARFCD[Tle]Y[Trp(7-aza)]EYP[dPhg][Nva]-NH2 (linker 1-6 via mXylyl(3)) [R3151] .
[reply] 0.165 µM

[ask] Please report the recorded Avg. IC50, human hemolysis assay for VCGTWEYSHGCV (not fully specified; [mXylyl(2,10)]Ac-Nvl-C-Phg-T-azaTrp-E-Y-(N-Me)S-H-G-C-Nvl-NH2) [R3101] .
[reply] > 100 µM

[ask] Please report the recorded Avg. IC50, human hemolysis assay for Ac-[Nva]CFT[Trp(7-aza)]EY[NMeS]AC[Nva]-NH2 (linker 2-10 via mXylyl(3)) [R3090] .
[reply] > 100 µM

[ask] Please report the recorded Avg. IC50, human hemolysis assay for Ac-CVERFCWEF-NH2 (linker 1-6 via mXylyl(3)) [R3125] .
[reply] > 100 µM

[ask] Please report the recorded Avg. IC50, human hemolysis assay for Ac-[Nva]C[Phg]T[Trp(7-aza)]AY[NMeS]HC[Nva]-NH2 (linker 2-10 via mXylyl(4)) [R3035] .
[reply] > 50 µM

[ask] Please report the recorded Avg. IC50, human hemolysis assay for Ac-CVERACD[Tle]Y[Trp(7-aza)]EYP[dPhg][Nva]-NH2 (linker 1-6 via mXylyl(3)) [R3156] .
[reply] > 10 µM

[ask] Please report the recorded Avg. IC50, human hemolysis assay for Ac-Y[Nva]C[Phg]T[Trp(7-aza)]EY[NMeS]HC[Nva]-NH2 (linker 3-11 via mXylyl(3)) [R3113] .
[reply] > 5 µM

[ask] Please report the recorded Avg. IC50, human hemolysis assay for MCVERFCDV-NH2 (linker 2-7 via mXylyl(4)) [R3046] .
[reply] > 100 µM

[ask] Please report the recorded Avg. IC50, human hemolysis assay for Ac-[Nva]CYEN[Tle]Y[Trp(7-aza)]ECP[Phg][Nva]-NH2 (linker 2-10 via mXylyl″) [R3018] .
[reply] > 5.73 µM

[ask] Please report the recorded Avg. IC50, human hemolysis assay for Ac-CVERFCVYWEF-NH2 (linker 1-6 via mXylyl(3)) [R3124] .
[reply] > 100 µM

[ask] Please report the recorded Avg. IC50, human hemolysis assay for Ac-[Nva]C[Phg]T[Trp(7-aza)]EY[NMeS]HC[Nva]-NH2 (linker 2-10 via mXylyl″) [R3012] .
[reply] 0.148 µM

[ask] Please report the recorded Avg. IC50, human hemolysis assay for Ac-[Nva]C[Phg]T[Trp(7-aza)]EY[NMeS]HC[Nva]-NH2 (bridge 2-10) [R3042] .
[reply] > 100 µM

[ask] Please report the recorded Avg. IC50, human hemolysis assay for Ac-YPYC[Phg][Trp(7-aza)][Tle]E[Nva]NY[Nva]E-NH2 (SMILES CCC[C@H](NC(=O)[C@H](Cc1ccc(O)cc1)NC(=O)[C@H](CC(N)=O)NC(=O)[C@H](CCC)NC(=O)[C@H](CCC(=O)O)NC(=O)[C@@H](NC(=O)[C@H](Cc1c[nH]c2ncccc12)NC(=O)[C@@H](NC(=O)[C@H](CS)NC(=O)[C@H](Cc1ccc(O)cc1)NC(=O)[C@@H]1CCCN1C(=O)[C@H](Cc1ccc(O)cc1)NC(C)=O)c1ccccc1)C(C)(C)C)C(=O)N[C@@H](CCC(=O)O)C(N)=O) [R3023] .
[reply] > 100 µM
